These measurements were taken from PubChem BioAssay (NCI).

# Tested on: NCI-H226 lung
# procedure summary: NCI tumour cell line growth inhibition, 48 h; in the data active = GI50 below about 0.43 µM; inactive = the rest
// allowed return values: active, inactive

Problem: Can you look up the reported call for CC(=O)Nc1cc(/C=C\C(=O)N2CC(CCl)c3c2cc(N)c2ccccc32)n(C)n1 (stereo not drawn) for me?
Result: active

Problem: State the result this test recorded for "COC(=O)c1ccc2c(c1)C(=O)c1c-2n(CCCCl)c(=O)c2cc(OC)c(OC)cc12" .
Result: inactive

Problem: Tell me the recorded outcome of this test for CN(C)c1ccc2c(c1)OC(N)=C(C#N)C2c1ccc2c(c1)CCCN2C (stereo not drawn) .
Result: inactive

###

Can you tell me TGI for the items I'm about to list?
# Test system: COLO 205 colon
# procedure summary: NCI tumour cell line growth inhibition, 48 h

Problem: Record lookup: for COLO 205 colon, what TGI belongs to "CC1=NN(c2nc(N)nc(/C=C\c3ccccc3)n2)C(C)(C)C1" ?
Result: 14 µM

Problem: What measured TGI is associated with CCOC(=O)C(C)(Cc1ccc(O)cn1)NC(=O)c1ccccc1 (stereo unspecified) on COLO 205 colon?
Result: > 100 µM

Problem: Return TGI measured with COLO 205 colon given this compound: "C=C(C)[C@@H]1CC[C@]2(C(=O)n3ccnc3)CC[C@]3(C)[C@H](CC[C@@H]4[C@@]5(C)CCCNC(C)(C)[C@@H]5CC[C@]43C)[C@@H]12"
Result: 3.25 µM

Problem: Lab request: please report TGI under test system COLO 205 colon for "CCN(CC)C(=S)S"
Result: > 100 µM

Problem: Recall the recorded TGI for NCC(Cc1ccccc1)P(=O)(O)O (stereo unspecified) with COLO 205 colon and state it.
Result: > 100 µM

Problem: Can you look up TGI on COLO 205 colon for "C/C(CC(=O)Nc1cccc(Cl)c1C)=N\N=C(N)N" ?
Result: > 100 µM

Problem: Notebook entry, COLO 205 colon assay: TGI of CC1(C)OC2OC(COC(=O)C(c3ccccc3)c3ccccc3)C3OC(C)(C)OC3C2O1 (stereo unspecified) = ?
Result: > 100 µM

Problem: Can you look up TGI on COLO 205 colon for "N=C(N)c1ccc(N=Nc2c(O)ccc3cc(O)ccc23)cc1" ?
Result: > 100 µM

Problem: For COLO 205 colon, provide TGI of C1CCN2CC3CONC3C2C1 (stereo unspecified) please.
Result: > 100 µM

Problem: Find TGI (COLO 205 colon) for the entry "Cc1cc(-c2ccco2)cc(C)c1/C=C/c1cncc(-c2nn[nH]n2)c1"
Result: > 25 µM

Problem: Under COLO 205 colon: TGI value of "CC/C(=C(/c1ccc(/C=C/C(=O)O)cc1)c1ccc2[nH]ncc2c1)c1ccc(F)cc1Cl" ?
Result: 35.3 µM

Problem: Notebook: pull reported TGI for COLO 205 colon, entry CC1=CC(=O)c2c(O)c3c(c(O)c2C1=O)C1C(O)C(C3=O)C23C(=O)c4c(O)c(C)cc(O)c4C(O)=C2C(=O)CC(O)C13 (stereo unspecified)
Result: 4.76 µM

Problem: Query for COLO 205 colon: what TGI does the record show for COc1ccc2c3c(c(C(=O)O)oc13)C(CCC(=O)O)CC2 (stereo unspecified) ?
Result: > 100 µM

Problem: Form field - read-out: TGI; system: COLO 205 colon; submitted item: "CC1CCN(c2cc(-c3cc4ccccc4o3)oc(=O)c2C#N)CC1"
Result: > 100 µM

Problem: For COLO 205 colon, provide TGI of "CCN(CC)C(=O)CCCCCn1c2ccccc2c2c3c(c4c5ccccc5[nH]c4c21)C(=O)N(O)C3=O" please.
Result: 4.23 µM

Problem: Give recorded TGI with COLO 205 colon for the following compound: "NC(N)=N/N=C\c1c(-c2ccccc2)nc2sccn12"
Result: 24.6 µM

Problem: Requested read-out TGI, target or system COLO 205 colon, entry "O=S(=O)(c1ccc2ccccc2c1)N1CCN(S(=O)(=O)c2ccc3ccccc3c2)CC1"
Result: > 100 µM

Problem: Please provide the recorded TGI for CC(=O)OC1COC(Oc2c(C)c3c4c(c2O)[C@@H](C)CC[C@@H]4[C@@H](C)C[C@H]3C=C(C)C)C(O)C1O (stereo partly specified) , tested on COLO 205 colon.
Result: > 100 µM

Problem: Notebook entry, COLO 205 colon assay: TGI of "O/N=C1\CSc2ccccc2C1" = ?
Result: > 100 µM

Problem: Param readout = TGI; param system = COLO 205 colon; param query = "COc1ncc2cc1NS(=O)(=O)c1cccc(c1)C(=O)NCC1=CC=C(S1)c1ncnc3c1SC2=C3C" ; response: value
Result: 0.555 µM

Problem: I'm curious: which TGI was measured for "O=C(/C=C/c1cccc(Oc2ccc(Cl)cc2)c1)c1ccccc1" tested on COLO 205 colon?
Result: 283 µM

Problem: What reported TGI corresponds to "CCOc1ccc(/C=C2/C(=O)N=C(N)N=C2N)cc1OCC" on COLO 205 colon?
Result: > 100 µM

Problem: Missing value: TGI, COLO 205 colon, entry "Nc1c(-c2nc3ccccc3s2)[n+]([O-])c2ccccc2[n+]1[O-]" . Fill in?
Result: > 100 µM

Problem: COLO 205 colon / TGI / "CC1=C(C(=O)CC(=O)C(=O)Nc2ccccc2C)Sc2ccccc2N1" : value?
Result: > 61.6 µM

Problem: TGI of "Cc1cc(OC(=O)Nc2ccc(Cl)cc2)ccc1C(=S)Nc1ccccc1" on COLO 205 colon?
Result: > 100 µM

Problem: Please state recorded TGI (tested on COLO 205 colon) of "O=C(/C=C\c1ccc(/C=C/C(=O)Nc2cccc(C3=NCCCN3)c2)cc1)Nc1cccc(C2=NCCCN2)c1"
Result: > 100 µM

Problem: Identify the measured TGI of O[C@]12c3ccccc3C1CCCCC2N1CCOCC1 (stereo partly specified) for COLO 205 colon.
Result: > 100 µM

Problem: Form field - read-out: TGI; system: COLO 205 colon; submitted item: Nc1ncnc2c1ncn2CCOC(c1ccccc1)P(=O)(O)O (stereo unspecified)
Result: > 100 µM

Problem: Could you share what TGI was measured for "O=C(/C=C/c1cccs1)c1ccc([N+](=O)[O-])cc1" , tested on COLO 205 colon?
Result: > 100 µM

Problem: For the record "CC(=O)N1c2ccccc2[C@H]2CCc3c([nH]c4ccccc34)[C@H]21" , what value of TGI is listed for COLO 205 colon?
Result: 27.6 µM

Problem: Reported TGI for COLO 205 colon, given Clc1cccc(C2SCc3nc4ccccc4n32)c1 (stereo unspecified) ?
Result: 15.1 µM

Problem: // fetch COLO 205 colon TGI for COCCOCCOCCC(=O)NC1CC2CCC1(C)C2(C)C (stereo unspecified)
Result: > 100 µM

Problem: API: value(readout= TGI, system= COLO 205 colon, query= "O=c1c2cccc3cccc(c4n1CCCN=4)c32" )
Result: > 100 µM

Problem: Any idea what TGI came out for "COC(=O)c1cc2ccccc2c2nc3ccccc3c(Cl)c12" on COLO 205 colon?
Result: > 100 µM

Problem: Give TGI (COLO 205 colon) of the following compound: COC(=O)c1ccccc1/C=C1\Cc2ccc3ccccc3c2C1C (stereo unspecified)
Result: > 100 µM

Problem: Request - read-out TGI | tested on COLO 205 colon | compound "CC(C)C/C(=N\NC(=O)c1ccncc1)c1cc(Cl)ccc1O"
Result: 14.4 µM
